biological target: T1, recombinant human HER2 extracellular domain protein (human, UniProt P04626 23-652); test: BLI, Protein A capture
T1 construct: range 23-652; Range is printed for the immunogen/panning protein; also called ErbB2; recombinant HER2 protein
property-name: kon (M⁻¹ s⁻¹)
Answer format: numeric, M⁻¹ s⁻¹ implied, no suffix.

Which measured kon value corresponds to Hu2117HK-Mu29 (Fc fusion, scFv-hIgG1 Fc; not shown: human IgG1 Fc) scFv: EVQLVESGGGLVQPGGSLRLSCAASGFTYSSYGMSWVRQAPGKGLEWVASISGGGSYTKYPDSVKGRFTISRDNSKNTLYLQMNSLRAEDTAVYYCARDYAGFFDVWGQGTLVTVSSGGGGSGGGGSGGGGSDIQMTQSPSSLSASVGDRVTITCRSSQSLLHSNGNTYLHWYQQKPGKAPKLLIYKVSNRFSGVPSRFSGSGSGTDFTLTISSLQPEDFATYFCSQSTHVPYTFGQGTKVEIK ? 87700

Also need Hu2117HK-Mu23 (Fc fusion, scFv-hIgG1 Fc; not shown: human IgG1 Fc) scFv: EVQLVESGGGLVQPGGSLRLSCAASGFTYSSYGMSWVRQAPGKGLEWVASISGGGSYTKYPDSVKGRFTISRDNSKNTLYLQMNSLRAEDTAVYYCARDYAGFFDVWGQGTLVTVSSGGGGSGGGGSGGGGSDIQMTQSPSSLSASVGDRVTITCRSSQSLVHSNANTYLHWYQQKPGKAPKLLIYKVSNRFSGVPSRFSGSGSGTDFTLTISSLQPEDFATYFCSQSTHVPYTFGQGTKVEIK , thanks. 81200

Also need Hu2117HK-Mu19 (Fc fusion, name in Kabat numbering, scFv-hIgG1 Fc; not shown: human IgG1 Fc) scFv: EVQLVESGGGLVQPGGSLRLSCAASGFTYSSYGMSWVRQAPGKGLEWVASISGGGSYTKYPDSVKGRFTISRDNSKNTLYLQMNSLRAEDTAVYYCARDYAGFFDVWGQGTLVTVSSGGGGSGGGGSGGGGSDIQMTQSPSSLSASVGDRVTITCRSSQSLVHSQGNTYLHWYQQKPGKAPKLLIYKVSNRFSGVPSRFSGSGSGTDFTLTISSLQPEDFATYFCSQSTHVPYTFGQGTKVEIK , thanks. 60100

Also need Hu2117HK-Mu28 (Fc fusion, scFv-hIgG1 Fc; not shown: human IgG1 Fc) scFv: EVQLVESGGGLVQPGGSLRLSCAASGFTYSSYGMSWVRQAPGKGLEWVASISGGGSYTKYPDSVKGRFTISRDNSKNTLYLQMNSLRAEDTAVYYCARDYAGFFDVWGQGTLVTVSSGGGGSGGGGSGGGGSDIQMTQSPSSLSASVGDRVTITCRSSQSLVHSNTNTYLHWYQQKPGKAPKLLIYKVSNRFSGVPSRFSGSGSGTDFTLTISSLQPEDFATYFCSQSTHVPYTFGQGTKVEIK , thanks. 82800
